Provenance of the data: ChEMBL document CHEMBL2021888

target: Neuronal acetylcholine receptor; alpha4/beta2 (Homo sapiens, UniProt P17787+P43681); experiment: Antagonist activity at human alpha4beta2 nAChR expressed in HEK tsA201 cells assessed as inhibition of epibatidine-induced intracellular calcium accumulation at 50 uM after 1 hr by fluorescence assay relative to control; type: functional, cell-based; settings: HEK293, values are per cent of control
MEASURED ATTRIBUTE: residual activity
Please make sure the unit comes right after the number.

The examples below pair each entry with its known result.
O=C(CN1CCN(S(=O)(=O)c2ccc(F)cc2)CC1)Nc1ccccc1F	46.9%
C=CCN1C(=O)[C@](O)(CC(=O)c2ccco2)c2cc(Cl)ccc21	51.1%
Cn1c(=O)c2[nH]c(CN3CCc4ccccc4C3)nc2n(C)c1=O	83.2%
Cc1cccc(C(C)C)c1NC(=O)c1ccccc1NS(C)(=O)=O	74%
O=C(CSc1nnc(-c2ccccn2)o1)Nc1cccc2ccccc12	76.2%

# input Any idea what its residual activity is? The compound is C=C(C)CN1C(=O)C(O)(CC(=O)c2ccccn2)c2ccccc21 (centres undefined)
# output 59.9%

# input Which residual activity value belongs to O=C(O)CCC(=O)Nc1cc(F)ccc1F ?
# output 83.3%

# input Which residual activity reading was recorded for the compound O=C(O)c1cc(NCc2cccs2)ccc1N1CCOCC1 ?
# output 49.5%

# input Quick check: residual activity of Cc1cccc(NC(=O)c2cc(N)ccc2N2CCCCC2)n1 ?
# output 47.7%

# input Quick one: residual activity for O=C(Nc1ccc(F)cc1)C1CC(=O)n2c(nc3ccccc32)N1 (centres undefined) ?
# output 72.5%

# input Value lookup for residual activity; key = CC(=O)Nc1ccc2c(c1)nc(CN1CCCCC1)n2C
# output 86.2%

# input What does the data say about its residual activity? Entry: CC(=O)N1CCN(c2ccc(NC(=O)c3cccnc3)cc2Cl)CC1
# output 103%

# input What does the record list as residual activity for O=C(CN1CCN(c2ccccc2)CC1)NCc1ccco1 ?
# output 59.8%

# input // lookup residual activity for COC(=O)c1ccc(N2CCN(C)CC2)c(NC(=O)Cc2ccccc2)c1
# output 71%
